# tgt: CDK2 (Homo sapiens)
# Construct: endogenous in cells; host or cells: MDA-MB-231
# protocol-description: CDK protein degradation activity (Western blotting), CDK2
# Type: cell-based
# condition-context: MDA-MB-231 cells, 0.1 μM, 16 hours, Western blot
property: Enzyme degradation CDK2 (% remaining) @ 0.1 μM (%)
The answer is to be given in %; state only the numeric part.

Query: Would you kindly share the measured Enzyme degradation CDK2 (% remaining) @ 0.1 μM for Cc1cccc(C(=O)NC2CC(n3cnc4c(Nc5ccc(N6CCN(CC7CCN(c8cccc9c8C(=O)N([C@H]8CCC(=O)NC8=O)C9=O)CC7)CC6)cc5)ncnc43)C2)n1 (stereo partly shown) [Compound 89] ?
Reply: 70

Query: Please answer likewise for Cc1cccc(C(=O)N[C@H]2C[C@@H](n3cnc4c(NCCC5CCN(CC6CCN(C(=O)CCNc7ccc8c(c7)C(=O)N([C@H]7CCC(=O)NC7=O)C8=O)CC6)CC5)ncnc43)C2)n1 (racemic) [Compound 310]
Reply: 100

Query: Please answer likewise for O=C1CCC(N2C(=O)c3cccc(NCC(=O)N4CCC(CN5CCC(c6ccc(Nc7ncnc8c7ncn8[C@H]7C[C@@H](NC(=O)Cc8ccccc8)C7)cc6)CC5)CC4)c3C2=O)C(=O)N1 (stereo partly shown) [Compound 288]
Reply: 10

Query: Please answer likewise for Cc1cccc(C(=O)N[C@H]2C[C@@H](n3cnc4c(Nc5ccc(N6CCN(CC7CCN(c8cc9c(cc8F)C(=O)N([C@H]8CCC(=O)NC8=O)C9=O)CC7)CC6)cc5)ncnc43)C2)n1 [Compound 377]
Reply: 20

Query: Please answer likewise for O=C1CC[C@@H](c2cccc(OCC(=O)N3CCC(CN4CCN(c5ccc(Nc6ncnc7c6ncn7C6CC(NC(=O)Cc7ccccc7)C6)cc5)CC4)CC3)c2)C(=O)N1 (stereo partly shown) [Compound 225]
Reply: 10

Query: Please answer likewise for Cc1cccc(C(=O)NC2CC(n3cnc4c(Nc5ccc(N6CCN(CC7CCN(C(=O)CNc8ccc9c(c8)C(=O)N([C@H]8CCC(=O)NC8=O)C9=O)CC7)CC6)cc5)ncnc43)C2)n1 (stereo partly shown) [Compound 92]
Reply: 40

Query: Please answer likewise for O=C1CC[C@H](N2C(=O)c3cc(F)c(N4CCC(C(=O)N5CCC(CN6CCN(c7ccc(Nc8ncnc9c8ncn9C8CC(NC(=O)Cc9ccccc9)C8)cc7)CC6)CC5)CC4)cc3C2=O)C(=O)N1 (stereo partly shown) [Compound 456]
Reply: 50

Query: Please answer likewise for O=C1CC[C@H](N2C(=O)c3ccc(N4CCN(CCC5CCN(c6ccc(Nc7ncnc8c7ncn8[C@H]7C[C@@H](NC(=O)Cc8ccccc8)C7)cc6)CC5)CC4)cc3C2=O)C(=O)N1 [Compound 338]
Reply: 10

Query: Please answer likewise for O=C1CC[C@H](N2C(=O)c3ccc(N4CCN(C5CC6(CCN(c7ccc(Nc8ncnc9c8ncn9[C@H]8C[C@@H](NC(=O)Cc9ccccc9)C8)cc7)CC6)C5)CC4)cc3C2=O)C(=O)N1 [Compound 335]
Reply: 20

Query: Please answer likewise for Cc1cccc(C(=O)N[C@H]2C[C@@H](n3cnc4c(NCc5cccc(OCCCN6CCN(C(=O)COc7cccc8c7C(=O)N([C@H]7CCC(=O)NC7=O)C8=O)CC6)c5)ncnc43)C2)n1 [Compound 101]
Reply: 70

Query: Please answer likewise for Cc1cccc(C(=O)N[C@H]2C[C@@H](n3cnc4c(NC5CCN(CCC6CCN(C(=O)CNc7cccc8c7C(=O)N(C7CCC(=O)NC7=O)C8=O)CC6)CC5)ncnc43)C2)n1 (stereo partly shown) [Compound 34]
Reply: 50

Query: Please answer likewise for O=C1CC[C@H](N2C(=O)c3cccc(N4CCC5(CC4)CC(N4CCN(c6ccc(Nc7ncnc8c7ncn8[C@H]7C[C@@H](NC(=O)Cc8ccccc8)C7)cc6)CC4)C5)c3C2=O)C(=O)N1 [Compound 209]
Reply: 70
